# Experimental system: human receptor tyrosine kinase like orphan receptor 1 (ROR1) (human, UniProt Q01973 30-937)
# Sequence (Q01973 30-937): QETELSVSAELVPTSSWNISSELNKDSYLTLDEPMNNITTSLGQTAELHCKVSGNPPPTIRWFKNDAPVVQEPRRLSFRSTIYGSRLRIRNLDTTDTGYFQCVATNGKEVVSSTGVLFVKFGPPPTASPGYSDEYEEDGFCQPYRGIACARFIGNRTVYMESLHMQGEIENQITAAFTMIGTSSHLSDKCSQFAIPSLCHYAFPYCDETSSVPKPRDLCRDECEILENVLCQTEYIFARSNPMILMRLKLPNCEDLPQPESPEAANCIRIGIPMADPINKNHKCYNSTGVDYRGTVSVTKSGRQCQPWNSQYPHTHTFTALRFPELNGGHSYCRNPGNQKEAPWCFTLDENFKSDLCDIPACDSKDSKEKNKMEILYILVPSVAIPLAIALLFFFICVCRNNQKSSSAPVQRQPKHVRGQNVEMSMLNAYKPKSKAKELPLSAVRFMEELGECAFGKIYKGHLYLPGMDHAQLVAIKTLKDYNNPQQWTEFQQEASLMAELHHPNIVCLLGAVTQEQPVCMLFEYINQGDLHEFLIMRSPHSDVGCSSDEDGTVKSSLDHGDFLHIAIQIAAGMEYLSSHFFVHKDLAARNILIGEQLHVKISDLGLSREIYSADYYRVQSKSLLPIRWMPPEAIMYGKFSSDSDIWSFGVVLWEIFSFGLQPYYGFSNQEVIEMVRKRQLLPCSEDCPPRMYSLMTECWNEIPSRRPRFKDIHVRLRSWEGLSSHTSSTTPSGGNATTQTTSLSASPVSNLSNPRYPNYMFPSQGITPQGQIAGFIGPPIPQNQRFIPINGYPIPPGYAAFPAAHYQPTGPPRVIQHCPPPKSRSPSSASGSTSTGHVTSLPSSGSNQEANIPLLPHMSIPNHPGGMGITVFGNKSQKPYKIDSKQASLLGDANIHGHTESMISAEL
# Method notes: cell-based or functional assay
Recorded metric: IC50, cell viability (CellTiter-Glo, 72 h), HBL-1 cells (µM)

- Binder: "ADC-C (antibody, human IgG1, kappa, V domains shown, MAL-VC-PAB-DM1 bonded via cysteine residues of the antibody (chain and positions not stated)) VH: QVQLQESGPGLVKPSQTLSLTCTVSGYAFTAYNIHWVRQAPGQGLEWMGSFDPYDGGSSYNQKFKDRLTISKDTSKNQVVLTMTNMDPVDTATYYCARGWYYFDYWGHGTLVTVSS VL: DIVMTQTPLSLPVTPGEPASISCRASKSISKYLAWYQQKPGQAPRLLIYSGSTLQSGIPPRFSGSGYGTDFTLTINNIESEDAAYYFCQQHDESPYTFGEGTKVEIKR"
  Unit tag: "µM"
  Relation qualifier: ">"
  Result value: 1
- Binder: "ADC-E (antibody, human IgG1, kappa, V domains shown, SC-VC-PAB-MMAE bonded via lysine residues of the antibody (chain and positions not stated)) VH: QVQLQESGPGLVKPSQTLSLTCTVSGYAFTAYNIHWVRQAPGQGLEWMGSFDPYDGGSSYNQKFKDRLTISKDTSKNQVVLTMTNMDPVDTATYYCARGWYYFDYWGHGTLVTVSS VL: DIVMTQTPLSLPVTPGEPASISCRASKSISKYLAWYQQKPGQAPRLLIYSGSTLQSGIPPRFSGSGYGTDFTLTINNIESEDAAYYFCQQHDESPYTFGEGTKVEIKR"
  Unit tag: "µM"
  Relation qualifier: "="
  Result value: 0.147
- Binder: "ADC-B (antibody, human IgG1, kappa, V domains shown, SMCC-DM1 bonded via lysine residues of the antibody (chain and positions not stated); SMCC-DM1 bonded via lysine residues of the antibody (chain and positions not stated); DAR 3.0 to 3.20) VH: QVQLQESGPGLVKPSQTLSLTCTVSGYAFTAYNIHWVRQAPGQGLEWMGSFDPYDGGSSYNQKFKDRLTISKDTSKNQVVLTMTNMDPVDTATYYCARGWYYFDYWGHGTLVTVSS VL: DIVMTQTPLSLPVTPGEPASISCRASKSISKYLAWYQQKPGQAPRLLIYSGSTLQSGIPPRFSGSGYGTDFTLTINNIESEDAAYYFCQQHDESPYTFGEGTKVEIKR"
  Unit tag: "µM"
  Relation qualifier: "="
  Result value: 0.0701
- Binder: "ADC-F (antibody, human IgG1, kappa, V domains shown, SC-VC-PAB-DM1 bonded via lysine residues of the antibody (chain and positions not stated)) VH: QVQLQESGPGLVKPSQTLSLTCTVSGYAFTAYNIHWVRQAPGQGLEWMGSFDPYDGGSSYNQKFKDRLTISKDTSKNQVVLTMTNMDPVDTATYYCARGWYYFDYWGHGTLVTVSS VL: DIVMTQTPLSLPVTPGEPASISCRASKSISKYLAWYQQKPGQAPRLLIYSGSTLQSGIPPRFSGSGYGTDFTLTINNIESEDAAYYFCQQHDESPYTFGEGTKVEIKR"
  Unit tag: "µM"
  Relation qualifier: ">"
  Result value: 1
